These measurements were taken from ChEMBL document CHEMBL1806458.

experimental_details: Half life in rat liver microsomes
Type: ADME, Microsome
We'd kindly ask you to apply these half-life classes: low bin = under 9 min, mid bin = from 9 min up to 20 min, high bin = 20 min and over

Study these solved cases before continuing.
CC(C)(C)OC(=O)N1Cc2ccc(/C=C/C(=O)NO)cc2C1 :: mid bin
Nc1ccccc1NC(=O)c1ccc(CNC(=O)OCc2cccnc2)cc1 :: high bin
O=C(/C=C/c1ccc2c(c1)CN(Cc1ccccc1)C2)NO :: high bin

Exam item: assign Cc1[nH]c2ccccc2c1CC(=O)N1Cc2ccc(/C=C/C(=O)NO)cc2C1 to the correct category.
mid bin

Classify this compound: O=C(/C=C/c1cccc(S(=O)(=O)Nc2ccccc2)c1)NO
mid bin

State the class of the compound shown: Cc1noc(-c2ccccc2)c1CCN1Cc2ccc(/C=C/C(=O)NO)cc2C1
low bin

Textbook exercise: identify the category of the compound given here, O=C(CCCCCCC(=O)Nc1ccccc1)NO , according to its measured value.
high bin

Class for O=C(/C=C/c1ccc(CN(CCO)CCc2c[nH]c3ccccc23)cc1)NO ?
low bin

Please classify: Cc1ccc(S(=O)(=O)N2Cc3ccc(/C=C/C(=O)NO)cc3C2)cc1
low bin

====

experimental_details: Thermodynamic solubility of the compound at pH 6.8
Assay type: physicochemical
measurement_setup: buffer
quantity_name: Therm_solubility

O=C(/C=C/c1ccc2c(c1)CN(S(=O)(=O)Cc1ccccc1)C2)NO :: soluble
O=C(CCCCCCC(=O)Nc1ccccc1)NO :: 19 µM
O=C(/C=C/c1ccc2c(c1)CN(C(=O)c1cccnc1)C2)NO :: soluble
Cn1cnc(S(=O)(=O)N2Cc3ccc(/C=C/C(=O)NO)cc3C2)c1 :: soluble
O=C(/C=C/c1ccc2c(c1)CN(S(=O)(=O)C1CC1)C2)NO :: soluble

// O=C(/C=C/c1ccc2c(c1)CN(S(=O)(=O)c1cccnc1)C2)NO : Therm_solubility value = soluble

// Therm_solubility value for O=C(/C=C/c1ccc2c(c1)CN(C(=O)Cc1ccccc1)C2)NO : soluble

Therm_solubility measured on O=C(/C=C/c1ccc2c(c1)CN(S(=O)(=O)c1ccc(C(F)(F)F)cc1)C2)NO = soluble

Per the record, CCCCS(=O)(=O)N1Cc2ccc(/C=C/C(=O)NO)cc2C1 has Therm_solubility of soluble

Input O=C(/C=C/c1ccc2c(c1)CN(S(=O)(=O)c1cccc(C(F)(F)F)c1)C2)NO . Output Therm_solubility: soluble

Quick note, Therm_solubility for Cc1ccccc1S(=O)(=O)N1Cc2ccc(/C=C/C(=O)NO)cc2C1 landed at soluble

For reference, reported Therm_solubility for COc1cccc(S(=O)(=O)N2Cc3ccc(/C=C/C(=O)NO)cc3C2)c1 stands at soluble

Input O=C(/C=C/c1ccc2c(c1)CN(S(=O)(=O)c1ccccc1)C2)NO . Output Therm_solubility: soluble

So, O=C(/C=C/c1ccc2c(c1)CN(S(=O)(=O)c1ccncc1)C2)NO ? Its Therm_solubility was soluble

Lookup result for CS(=O)(=O)N1Cc2ccc(/C=C/C(=O)NO)cc2C1 ; measured Therm_solubility: soluble

====

These records show pIC50 for Cytochrome P450 3A4 (Homo sapiens).
pIC50: −log10 of the molar value.

Cc1[nH]c2ccccc2c1CCN1Cc2ccc(/C=C/C(=O)NO)cc2C1 :: < 5.00
O=C(/C=C/c1ccc2c(c1)CN(CCc1cnn3ccccc13)C2)NO :: < 4.30
O=C(/C=C/c1ccc2c(c1)CN(C(=O)Cc1ccccc1)C2)NO :: < 4.30

Form field, pIC50 with Cytochrome P450 3A4 (Homo sapiens), item Nc1ccccc1NC(=O)c1ccc(CNC(=O)OCc2cccnc2)cc1 : 6.14

With Cytochrome P450 3A4 (Homo sapiens) as the test system, O=C(/C=C/c1ccc2c(c1)CN(CCc1c[nH]c3ccccc13)C2)NO showed pIC50 of < 5.00

====

experimental_details: Half life in rat liver microsomes
Assay type: ADME, Microsome
quantity_name: half-life (min)
// units = min; emit number, no label

O=C(/C=C/c1ccc2c(c1)CN(CCc1c[nH]c3ccccc13)C2)NO :: 5
Cc1cccc(S(=O)(=O)N2Cc3ccc(/C=C/C(=O)NO)cc3C2)c1 :: 7
Nc1ccccc1NC(=O)c1ccc(CNc2nccc(-c3cccnc3)n2)cc1 :: 31.3
COc1ccc(S(=O)(=O)N2Cc3ccc(/C=C/C(=O)NO)cc3C2)cc1 :: 8.5

Proceeding to the next compound to report its half-life.
The compound listed as Cc1[nH]c2ccccc2c1CCN1Cc2ccc(/C=C/C(=O)NO)cc2C1 shows half-life equal to 2

====

Test system: hERG (KCNH2)
measurement_setup: human, hct-116
quantity_name: selectivity ratio
Just the number, please, no unit after it.

Cc1[nH]c2ccccc2c1CCN1Cc2ccc(/C=C/C(=O)NO)cc2C1 :: 114

Would you kindly look at the next entry?
selectivity ratio reading for O=C(/C=C/c1ccc2c(c1)CN(CCc1cnn3ccccc13)C2)NO : 7.4

====

measurement_target: Voltage-gated inwardly rectifying potassium channel KCNH2 (Homo sapiens, UniProt Q12809)
Sequence (Q12809 whole entry): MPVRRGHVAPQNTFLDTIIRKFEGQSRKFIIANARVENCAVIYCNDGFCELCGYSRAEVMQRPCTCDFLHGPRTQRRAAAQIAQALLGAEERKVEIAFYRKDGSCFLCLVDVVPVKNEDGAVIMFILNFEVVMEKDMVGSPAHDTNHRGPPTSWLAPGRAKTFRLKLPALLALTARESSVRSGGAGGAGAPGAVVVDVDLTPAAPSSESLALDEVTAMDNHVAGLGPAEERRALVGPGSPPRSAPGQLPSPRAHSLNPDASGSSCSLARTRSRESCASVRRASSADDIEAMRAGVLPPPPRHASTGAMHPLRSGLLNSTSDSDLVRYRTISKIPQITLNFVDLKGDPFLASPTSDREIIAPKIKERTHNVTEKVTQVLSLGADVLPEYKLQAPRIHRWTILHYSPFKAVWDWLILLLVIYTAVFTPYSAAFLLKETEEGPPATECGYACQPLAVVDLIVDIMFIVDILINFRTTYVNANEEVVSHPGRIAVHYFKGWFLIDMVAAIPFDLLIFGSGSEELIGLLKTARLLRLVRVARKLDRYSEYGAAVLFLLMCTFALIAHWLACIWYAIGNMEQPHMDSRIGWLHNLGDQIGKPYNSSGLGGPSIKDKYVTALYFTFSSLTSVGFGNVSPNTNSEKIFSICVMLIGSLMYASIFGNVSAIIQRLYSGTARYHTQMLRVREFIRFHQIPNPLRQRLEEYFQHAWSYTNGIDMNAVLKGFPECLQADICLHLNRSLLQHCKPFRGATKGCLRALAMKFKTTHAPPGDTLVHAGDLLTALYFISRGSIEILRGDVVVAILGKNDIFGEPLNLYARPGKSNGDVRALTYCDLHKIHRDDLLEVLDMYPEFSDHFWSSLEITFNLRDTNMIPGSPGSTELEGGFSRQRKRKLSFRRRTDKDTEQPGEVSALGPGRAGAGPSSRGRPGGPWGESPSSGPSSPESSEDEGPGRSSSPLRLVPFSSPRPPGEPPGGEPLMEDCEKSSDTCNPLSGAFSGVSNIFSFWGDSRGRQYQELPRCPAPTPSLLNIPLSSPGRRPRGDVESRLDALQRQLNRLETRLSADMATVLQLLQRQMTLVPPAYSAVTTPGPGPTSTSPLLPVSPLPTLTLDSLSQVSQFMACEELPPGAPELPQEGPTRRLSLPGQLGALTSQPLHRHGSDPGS
experimental_details: Binding affinity to human ERG by radioligand binding assay
quantity_name: IC50

The reported IC50 of the molecule Cc1[nH]c2ccccc2c1CC(=O)N1Cc2ccc(/C=C/C(=O)NO)cc2C1 was > 30 µM

====

experimental_details: Thermodynamic solubility of the compound at pH 6.8
Type: physicochemical
measurement_setup: buffer, read-out: Therm_solubility
Recorded measurements of log10 solubility thermodynamic, one per entry
A difference of one corresponds to tenfold solubility thermodynamic; all values are log10 with solubility thermodynamic in µM.

Cc1ccc(S(=O)(=O)N2Cc3ccc(/C=C/C(=O)NO)cc3C2)cc1 :: 1.30
O=C(/C=C/c1ccc2c(c1)CN(CCc1cnn3ccccc13)C2)NO :: 2.88

Sure, the documented log10 solubility thermodynamic for O=C(/C=C/c1ccc2c(c1)CN(S(=O)(=O)c1cccs1)C2)NO is 1.53

Reported log10 solubility thermodynamic ( O=C(/C=C/c1cccc(S(=O)(=O)Nc2ccccc2)c1)NO ) = 2.87

// field: log10 solubility thermodynamic; key: O=C(/C=C/c1ccc(CN(CCO)CCc2c[nH]c3ccccc23)cc1)NO ; value = 1.99

# log10 solubility thermodynamic (compound: Cc1cccc(S(=O)(=O)N2Cc3ccc(/C=C/C(=O)NO)cc3C2)c1 ) is 1.30

// CC(C)(C)OC(=O)N1Cc2ccc(/C=C/C(=O)NO)cc2C1 : log10 solubility thermodynamic value = 2.00

The value of log10 solubility thermodynamic measured for the compound O=C(/C=C/c1ccc2c(c1)CN(CCc1c[nH]c3ccccc13)C2)NO turned out to be 2.69

In plain terms, Cc1[nH]c2ccccc2c1CCN1Cc2ccc(/C=C/C(=O)NO)cc2C1 has a documented log10 solubility thermodynamic of 2.42

Form: compound = Cc1noc(-c2ccccc2)c1CCN1Cc2ccc(/C=C/C(=O)NO)cc2C1 ; log10 solubility thermodynamic = 2.69

compound Nc1ccccc1NC(=O)c1ccc(CNc2nccc(-c3cccnc3)n2)cc1 , log10 solubility thermodynamic observed: 1.52

Query Nc1ccccc1NC(=O)c1ccc(CNC(=O)OCc2cccnc2)cc1 yields log10 solubility thermodynamic of 2.60

====

Each entry below carries its recorded pIC50.
measurement_target: Histone deacetylase 1 (Homo sapiens)
Sequence (Q13547 whole entry): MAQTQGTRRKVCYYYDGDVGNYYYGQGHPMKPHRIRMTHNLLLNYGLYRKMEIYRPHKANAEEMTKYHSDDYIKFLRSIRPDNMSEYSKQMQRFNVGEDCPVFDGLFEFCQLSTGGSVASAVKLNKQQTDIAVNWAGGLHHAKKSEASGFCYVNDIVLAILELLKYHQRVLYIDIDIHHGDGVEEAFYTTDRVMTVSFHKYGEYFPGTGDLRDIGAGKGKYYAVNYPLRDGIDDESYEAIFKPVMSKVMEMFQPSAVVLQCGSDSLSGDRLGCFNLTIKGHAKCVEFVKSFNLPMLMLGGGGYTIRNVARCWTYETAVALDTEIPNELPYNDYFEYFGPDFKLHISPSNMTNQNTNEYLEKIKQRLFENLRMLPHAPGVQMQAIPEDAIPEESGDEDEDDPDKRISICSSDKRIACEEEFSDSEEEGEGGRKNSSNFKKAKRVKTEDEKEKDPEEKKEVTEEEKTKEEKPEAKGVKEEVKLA
pIC50 is defined as minus the log10 of a concentration measured in mol/L.

// solved cases for pIC50 follow
O=C(/C=C/c1ccc2c(c1)CN(Cc1ccccc1)C2)NO :: 6.70
CS(=O)(=O)N1Cc2ccc(/C=C/C(=O)NO)cc2C1 :: 6.20
O=C(/C=C/c1ccc2c(c1)CN(CCC1CCCCC1)C2)NO :: 7.00

Record O=C(/C=C/c1ccc2c(c1)CN(C(=O)c1cccc(C(F)(F)F)c1)C2)NO / Histone deacetylase 1 (Homo sapiens), pIC50 recorded as 6.70

Record O=C(/C=C/c1ccc2c(c1)CN(S(=O)(=O)c1ccncc1)C2)NO has Histone deacetylase 1 (Homo sapiens) pIC50 equal to 6.32

O=C(/C=C/c1ccc2c(c1)CN(S(=O)(=O)c1cccnc1)C2)NO tested on Histone deacetylase 1 (Homo sapiens) gave pIC50: 6.82

The measured pIC50 that COc1cccc(S(=O)(=O)N2Cc3ccc(/C=C/C(=O)NO)cc3C2)c1 showed for Histone deacetylase 1 (Homo sapiens) is 7.04

The observed pIC50 for O=C(/C=C/c1ccc2c(c1)CN(C(=O)C1CCCCC1)C2)NO when tested with Histone deacetylase 1 (Homo sapiens) stands at 6.41

Entry O=C(/C=C/c1ccc2c(c1)CN(CCc1cnn3ccccc13)C2)NO , tested on Histone deacetylase 1 (Homo sapiens), has a reported pIC50 of 7.11

Kindly note: Histone deacetylase 1 (Homo sapiens), O=C(/C=C/c1ccc2c(c1)CN(CCc1c[nH]c3ccccc13)C2)NO , pIC50 value reported: 7.80

Observed pIC50, Histone deacetylase 1 (Homo sapiens), COc1ccc(S(=O)(=O)N2Cc3ccc(/C=C/C(=O)NO)cc3C2)cc1 : 7.46

Assay Histone deacetylase 1 (Homo sapiens), sample CCCCS(=O)(=O)N1Cc2ccc(/C=C/C(=O)NO)cc2C1 , pIC50 read: 6.82
